Biological target: recombinant human PARP1 (Homo sapiens, UniProt P09874)
Sequence (P09874 whole entry): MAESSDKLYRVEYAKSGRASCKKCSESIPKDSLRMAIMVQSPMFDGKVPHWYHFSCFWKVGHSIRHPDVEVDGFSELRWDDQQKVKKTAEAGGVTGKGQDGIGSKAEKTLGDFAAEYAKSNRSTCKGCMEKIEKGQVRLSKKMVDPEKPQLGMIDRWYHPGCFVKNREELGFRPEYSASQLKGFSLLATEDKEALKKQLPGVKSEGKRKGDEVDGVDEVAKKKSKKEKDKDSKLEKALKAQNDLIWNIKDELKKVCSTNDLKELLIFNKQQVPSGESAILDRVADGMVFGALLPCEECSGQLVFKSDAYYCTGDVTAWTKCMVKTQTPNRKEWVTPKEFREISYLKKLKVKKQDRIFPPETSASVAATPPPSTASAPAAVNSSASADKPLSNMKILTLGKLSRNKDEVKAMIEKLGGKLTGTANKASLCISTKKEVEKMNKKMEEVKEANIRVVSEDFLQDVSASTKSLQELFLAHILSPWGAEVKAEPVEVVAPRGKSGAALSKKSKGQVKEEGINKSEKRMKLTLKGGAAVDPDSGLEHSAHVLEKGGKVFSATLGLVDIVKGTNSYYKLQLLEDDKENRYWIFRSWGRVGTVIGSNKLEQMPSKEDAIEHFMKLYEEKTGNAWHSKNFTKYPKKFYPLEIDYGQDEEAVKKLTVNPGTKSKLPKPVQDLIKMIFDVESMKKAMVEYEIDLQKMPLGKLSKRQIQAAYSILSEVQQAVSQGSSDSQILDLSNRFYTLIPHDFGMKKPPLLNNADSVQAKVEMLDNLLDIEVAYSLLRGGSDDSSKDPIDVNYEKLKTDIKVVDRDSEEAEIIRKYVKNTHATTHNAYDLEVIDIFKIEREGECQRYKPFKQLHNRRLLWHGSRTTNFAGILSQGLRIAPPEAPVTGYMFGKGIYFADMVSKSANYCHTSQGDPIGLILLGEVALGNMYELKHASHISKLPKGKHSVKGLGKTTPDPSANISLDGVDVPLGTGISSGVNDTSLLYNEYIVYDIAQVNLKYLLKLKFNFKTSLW
Test: PARP1 fluorescence polarization binding assay
Conditions: GST-tagged PARP1 20 nM, PARP1-FL probe 3 nM
Structures can show the parent of a compound that is named as a salt.
metric_name: IC50

> print(dat)
                                    compound                              assay.target  value.reported
 1  CNC(=O)c1ccc(N2CCN(Cc3ccnc(NC(=O)NCCF)c3)CC2)c(C)n1  recombinant human PARP1 (Homo sapiens, UniProt P09874)        < 0.1 µM
 2  CCNC(=O)Nc1nccc(CN2CCN(c3ccc(C(=O)NC)nc3C)CC2)c1C  recombinant human PARP1 (Homo sapiens, UniProt P09874)        < 0.1 µM
 3  CNC(=O)c1ccc(N2CCN(Cc3ccnc(NC(=O)NC4CC4)c3)CC2)c(C)n1  recombinant human PARP1 (Homo sapiens, UniProt P09874)        < 0.1 µM
 4  CNC(=O)Nc1cc(CN2CCN(c3ccc(C(=O)NC)nc3C)CC2)ccn1 [Compound 42, trifluoroacetate]  recombinant human PARP1 (Homo sapiens, UniProt P09874)        < 0.1 µM
 5  CCNC(=O)Nc1cc(CN2CCN(c3ccc(NC(C)=O)nc3C)CC2)ccn1  recombinant human PARP1 (Homo sapiens, UniProt P09874)        < 0.1 µM
 6  CCNC(=O)Nc1cccc(CN2CCN(c3ccc(C(=O)NC)nc3C)CC2)c1  recombinant human PARP1 (Homo sapiens, UniProt P09874)     0.1 to 3 µM
 7  CCNC(=O)Nc1cc(CN2CCN(c3ccc(C(=O)NC)nc3F)CC2)ccn1  recombinant human PARP1 (Homo sapiens, UniProt P09874)        < 0.1 µM
 8  CCNC(=O)Nc1ncc(CN2CCN(c3ccc(C(=O)NC)nc3C)CC2)s1 [Compound 242, trifluoroacetate]  recombinant human PARP1 (Homo sapiens, UniProt P09874)        < 0.1 µM
 9  CCNC(=O)Nc1cc(CN2CCN(c3ccc(C(=O)NC#N)nc3C)CC2)ccn1 [Compound 3, dihydrochloride]  recombinant human PARP1 (Homo sapiens, UniProt P09874)          ≥ 3 µM
10  CCNC(=O)Nc1cc(CN2CCN(c3ccc(C(=O)NC)cc3F)CC2)ccn1  recombinant human PARP1 (Homo sapiens, UniProt P09874)        < 0.1 µM
11  CNC(=O)c1ccc(N2CCN(Cc3ccnc(NC(=O)NCC(F)F)c3)CC2)c(C)n1  recombinant human PARP1 (Homo sapiens, UniProt P09874)        < 0.1 µM
12  CCNS(=O)(=O)Nc1cc(CN2CCN(c3ccc(C(=O)NC)nc3C)CC2)ccn1  recombinant human PARP1 (Homo sapiens, UniProt P09874)          ≥ 3 µM
13  CNC(=O)c1ccc(N2CCN(Cc3ccnc(NC(=O)NC(C)C)c3)CC2)c(C)n1  recombinant human PARP1 (Homo sapiens, UniProt P09874)        < 0.1 µM
14  CCNC(=O)Nc1cc(CN2CCN(c3ccc(C(=O)NC)nc3C)CC2)n(C)n1 [Compound 281, trihydrochloride]  recombinant human PARP1 (Homo sapiens, UniProt P09874)        < 0.1 µM
15  CCNC(=O)Nc1cc(CN2CCN(c3ccc(C(=O)NC)nc3C(F)(F)F)CC2)ccn1 [Compound 21, trifluoroacetate]  recombinant human PARP1 (Homo sapiens, UniProt P09874)        < 0.1 µM
16  CCNC(=O)Nc1cc(CN2CCN3c4ccc(C(=O)NC)nc4OC[C@H]3C2)ccn1  recombinant human PARP1 (Homo sapiens, UniProt P09874)        < 0.1 µM

---

Listing: IC50 of selected molecules
Biological target: recombinant human PARP1 (Homo sapiens, UniProt P09874)
Test: PARP1 fluorescence polarization binding assay
Conditions: GST-tagged PARP1 20 nM, PARP1-FL probe 3 nM
Structures can show the parent of a compound that is named as a salt.
metric_name: IC50

> print(dat)
                                   molecule                              assay.target  value.reported
1  CCNC(=O)Nc1cc(CN2CCN(c3ccc(C(=O)NC)nc3C)CC2=O)ccn1  recombinant human PARP1 (Homo sapiens, UniProt P09874)  100 to 3000 nM
2  CNC(=O)c1ccc(N2CCN(Cc3ccnc(NC(=O)NCC(F)(F)F)c3)CC2)c(C)n1  recombinant human PARP1 (Homo sapiens, UniProt P09874)        < 100 nM
3  CCCC(=O)Nc1cc(CN2CCN(c3ccc(C(=O)NC)nc3C)CC2)ccn1  recombinant human PARP1 (Homo sapiens, UniProt P09874)  100 to 3000 nM
4  CCNC(=O)Nc1cc(CN2CCN(c3ccc(C(=O)NC)nc3C#N)CC2)ccn1  recombinant human PARP1 (Homo sapiens, UniProt P09874)        < 100 nM
5  CCNC(=O)Nc1cc(CN2CCN(c3ccc(C#N)nc3)CC2)ccn1 [Compound 267, formate]  recombinant human PARP1 (Homo sapiens, UniProt P09874)        < 100 nM
6  CCNC(=O)Nc1cc(CN2CCN(c3ccc(C(=O)NC)nc3C)CC2)no1  recombinant human PARP1 (Homo sapiens, UniProt P09874)        < 100 nM
7  CCNC(=O)Nc1ncnc(CN2CCN(c3ccc(C(=O)NC)nc3F)CC2)c1F  recombinant human PARP1 (Homo sapiens, UniProt P09874)        < 100 nM
8  CCNC(=O)Nc1ncc(CN2CCN(c3ccc(C(=O)NC)nc3C)CC2)o1  recombinant human PARP1 (Homo sapiens, UniProt P09874)        < 100 nM

---

Target: recombinant human PARP2 (Homo sapiens, UniProt Q9UGN5)
Sequence (Q9UGN5 whole entry): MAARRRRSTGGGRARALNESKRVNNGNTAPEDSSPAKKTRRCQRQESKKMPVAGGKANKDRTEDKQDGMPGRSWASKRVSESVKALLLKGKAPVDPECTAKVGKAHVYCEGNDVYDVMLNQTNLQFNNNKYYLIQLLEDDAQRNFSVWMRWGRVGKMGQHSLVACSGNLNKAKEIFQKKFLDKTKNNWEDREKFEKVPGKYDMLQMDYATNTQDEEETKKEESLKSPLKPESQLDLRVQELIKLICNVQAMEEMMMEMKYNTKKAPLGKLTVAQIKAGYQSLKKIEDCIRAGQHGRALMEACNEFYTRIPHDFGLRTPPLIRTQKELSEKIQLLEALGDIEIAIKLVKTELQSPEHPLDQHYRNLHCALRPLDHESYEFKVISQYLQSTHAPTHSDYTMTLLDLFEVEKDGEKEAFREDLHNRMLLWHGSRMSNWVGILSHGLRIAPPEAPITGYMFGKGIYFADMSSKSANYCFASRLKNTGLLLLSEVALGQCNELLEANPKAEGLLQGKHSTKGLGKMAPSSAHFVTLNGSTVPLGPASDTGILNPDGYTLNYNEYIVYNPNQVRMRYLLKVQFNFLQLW
Assay: PARP2 fluorescence polarization binding assay
Details: read-out: PARP2 % inh at 10 μM
Structures can show the parent of a compound that is named as a salt.
Listing: inhibition at 10 µM of selected compounds
metric_name: inhibition at 10 µM

> print(dat)
                                   compound                              assay.target          metric.name  value.reported
1  CCNC(=O)Nc1ncc(CN2CCN(c3ccc(C(=O)NC)nc3C)CC2)s1 [Compound 242, trifluoroacetate]  recombinant human PARP2 (Homo sapiens, UniProt Q9UGN5)  inhibition at 10 µM           < 33%
2  CCNC(=O)Nc1cc(CN2CCN(c3ccc(C#N)cc3F)CC2)ccn1 [Compound 276, trifluoroacetate]  recombinant human PARP2 (Homo sapiens, UniProt Q9UGN5)  inhibition at 10 µM           < 33%
3  CCNC(=O)Nc1cc(CN2CCN(c3ccc(C(=O)NC)nc3C)CC2)ccn1 [Compound 13, formate]  recombinant human PARP2 (Homo sapiens, UniProt Q9UGN5)  inhibition at 10 µM           < 33%
4  CCNC(=O)Nc1cc(CN2CCN(c3ccc(C#N)nc3)CC2)ccn1 [Compound 267, formate]  recombinant human PARP2 (Homo sapiens, UniProt Q9UGN5)  inhibition at 10 µM           < 33%
